Molecular target: T1, human GPVI-Fc fusion protein (human, UniProt Q9HCN6 21-267, limits assumed)
T1 construct: also called human GPVI protein antigen
T1 sequence (looked up): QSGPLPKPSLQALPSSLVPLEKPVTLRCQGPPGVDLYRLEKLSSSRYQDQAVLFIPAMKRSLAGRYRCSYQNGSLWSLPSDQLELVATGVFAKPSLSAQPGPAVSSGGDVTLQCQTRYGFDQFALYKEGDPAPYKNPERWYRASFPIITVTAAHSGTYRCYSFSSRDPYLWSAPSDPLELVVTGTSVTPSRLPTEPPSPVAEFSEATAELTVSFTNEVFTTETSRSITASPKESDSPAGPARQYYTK
Experiment: BLI (Octet), GPVI-Fc on biosensor, 1:1 fit
Under this convention, T denotes Kd strictly below 0.4 nM and F denotes Kd at or above 0.4 nM.

Ask: Consider the binder HC1 LC2 humanized Fab (EMA601) (Fab, V domains shown, also called EMF601; VH1:VL2) VH: QVQLQESGPGLVKPSETLSLTCTASGFSLTSYGVTWIRQPPGKGLEWIGVIWGDGSTNYHSGLRSRVTISVDTSKSQFSLKLSSVTAADTAVYYCAKPIYYDFDDDAMDYWGQGTLVTVSS VL: DIQMTQSPSSLSASVGDRVTITCKASQNVGTYVAWFQQRPGKAPKSLIYSASYRCSGVPSKFSGSGSGTDFTLTINSLQPEDFATYYCHQYNNYPLTFGQGTKVEIKR . Is its Kd strictly less than 0.4 nM?
Result: T

Ask: Consider the binder HC1 LC1 humanized Fab (Fab, V domains shown, Monovalent 50 kDa Fab from CHO; also called VH1:VL1) VH: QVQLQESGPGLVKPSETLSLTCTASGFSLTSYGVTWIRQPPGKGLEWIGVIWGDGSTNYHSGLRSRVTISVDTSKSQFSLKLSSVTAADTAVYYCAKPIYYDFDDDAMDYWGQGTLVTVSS VL: EIVLTQSPSSLSASVGDRVTITCKASQNVGTYVAWFQQKPGKAPKSLIYSASYRCSGVPSKFSGSGSGTDFTLTISSLQPEDFATYYCHQYNNYPLTFGQGTKLEIKR . Is its Kd strictly less than 0.4 nM?
Result: F

Ask: Consider the binder HC3 LC3 humanized Fab (Fab, V domains shown, also called VH3:VL3) VH: QVQLVESGGGVVQPGRSLRLSCVASGFSLTSYGVTWVRQAPGKGLEWVAVIWGDGSTNYHSGLRSRFTISRDNSKNTMFLQMNSLRADDTAVYYCAKPIYYDFDDDAMDYWGQGTLVTVSS VL: DIQLTQSPSTLSASVGDRVTITCKASQNVGTYVAWYQQKPGKAPKLLIYSASYRCSGVPSRFSGSGSGTEFTLTISSLQPDDFTTYYCHQYNNYPLTFGQGTKVEIKR . Is its Kd strictly less than 0.4 nM?
Result: T

Ask: Consider the binder HC2 LC2 humanized Fab (Fab, V domains shown, also called VH2:VL2; EMF602) VH: EVQLVESGPGLVKPSETLSLTCTVSGFSLTSYGVTWIRQPPGKGLEWIGVIWGDGSTNYHSGLRSRVTISVDTSKNQFSLKLSSVTAADTAVYYCAKPIYYDFDDDAMDYWGQGTLVTVSS VL: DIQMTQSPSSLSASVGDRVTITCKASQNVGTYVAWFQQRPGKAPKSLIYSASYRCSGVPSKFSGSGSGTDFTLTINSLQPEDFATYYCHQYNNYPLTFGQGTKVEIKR . Is its Kd strictly less than 0.4 nM?
Result: T

Ask: Consider the binder HC3 LC1 humanized Fab (Fab, V domains shown, also called VH3:VL1) VH: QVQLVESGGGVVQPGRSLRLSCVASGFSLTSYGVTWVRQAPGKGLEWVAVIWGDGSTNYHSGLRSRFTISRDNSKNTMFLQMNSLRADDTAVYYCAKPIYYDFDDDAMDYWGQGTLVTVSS VL: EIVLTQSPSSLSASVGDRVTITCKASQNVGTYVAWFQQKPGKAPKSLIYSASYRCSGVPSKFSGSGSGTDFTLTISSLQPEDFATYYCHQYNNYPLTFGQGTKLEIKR . Is its Kd strictly less than 0.4 nM?
Result: T
